Entry source: ChEMBL document CHEMBL3991601

measured-on: Tyrosine-protein kinase SYK (Homo sapiens)
Activity calls are given as the source filed them.
measured-parameter: Kd

Quick check: Kd of "CNC(=O)CN1CCC(Oc2cc3c(Nc4cccc(Cl)c4F)ncnc3cc2OC)CC1" ?
> 30 µM (inactive)

Okay, and "CNC(=O)c1ccc(-c2cnc3ncc(Cc4ccc5ncccc5c4)n3n2)cc1F" ?
> 30 µM (inactive)

Another: "Cn1ncc(Cl)c1-c1cc(C(=O)N[C@H](CN)Cc2cccc(F)c2)sc1Cl"
> 30 µM (inactive)

Same lookup for "Cc1cc([C@@H](C)Nc2ccccc2C(=O)O)c2nc(N3CCOCC3)cc(=O)n2c1" , please.
> 30 µM (inactive)

Follow-up item: "COc1cc(CCc2cc(NC(=O)c3ccc(N4C[C@@H](C)N[C@@H](C)C4)cc3)n[nH]2)cc(OC)c1"
> 30 µM (inactive)
